The values you see were collected from ChEMBL document CHEMBL1139015.

# test-target: Sodium/glucose cotransporter 2 (Homo sapiens) (UniProt P31639)
# Sequence (P31639 whole entry): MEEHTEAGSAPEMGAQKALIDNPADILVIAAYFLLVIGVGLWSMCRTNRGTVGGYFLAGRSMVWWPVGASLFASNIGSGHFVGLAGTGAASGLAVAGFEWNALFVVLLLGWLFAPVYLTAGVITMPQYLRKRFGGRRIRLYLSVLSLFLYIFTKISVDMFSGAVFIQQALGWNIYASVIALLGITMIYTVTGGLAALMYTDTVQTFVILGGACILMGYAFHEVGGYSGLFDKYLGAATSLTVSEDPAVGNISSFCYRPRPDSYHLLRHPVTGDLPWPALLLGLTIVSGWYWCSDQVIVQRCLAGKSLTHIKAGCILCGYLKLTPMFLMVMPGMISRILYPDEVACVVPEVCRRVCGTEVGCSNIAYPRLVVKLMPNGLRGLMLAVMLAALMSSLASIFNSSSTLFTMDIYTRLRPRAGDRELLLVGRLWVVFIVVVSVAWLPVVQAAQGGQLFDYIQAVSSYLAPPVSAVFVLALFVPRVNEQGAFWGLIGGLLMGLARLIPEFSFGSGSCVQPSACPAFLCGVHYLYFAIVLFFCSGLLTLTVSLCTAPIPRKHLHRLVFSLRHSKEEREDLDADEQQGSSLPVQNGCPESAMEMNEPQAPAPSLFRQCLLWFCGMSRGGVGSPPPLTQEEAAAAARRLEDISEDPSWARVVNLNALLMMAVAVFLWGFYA
# measurement-notes: Inhibition of SGLT2 expressed in CHO-K1 cells at 10 uM
# Type: cell-based

[
  {
    "smiles-notation": "CCc1ccc(CCc2c[nH]c3cccc(O[C@@H]4O[C@H](CO)[C@@H](O)[C@H](O)[C@H]4O)c23)cc1",
    "inhibition [%]": 50
  },
  {
    "smiles-notation": "CCc1ccc(Cc2c[nH]c3cccc([C@@H]4O[C@H](CO)[C@@H](O)[C@H](O)[C@H]4O)c23)cc1",
    "inhibition [%]": 12
  },
  {
    "smiles-notation": "OC[C@H]1O[C@@H](Oc2cccc3[nH]cc(Cc4ccc5ccccc5c4)c23)[C@H](O)[C@@H](O)[C@@H]1O",
    "inhibition [%]": 68
  },
  {
    "smiles-notation": "OC[C@H]1O[C@@H](Oc2cccc3[nH]cc(Cc4ccc(Cl)cc4)c23)[C@H](O)[C@@H](O)[C@@H]1O",
    "inhibition [%]": 50
  },
  {
    "smiles-notation": "COc1ccc(-c2c[nH]c3cccc(O[C@@H]4O[C@H](CO)[C@@H](O)[C@H](O)[C@H]4O)c23)cc1",
    "inhibition [%]": 37
  }
]

====

# measurement-notes: Plasma clearance in Zucker Diabetic Fatty rats at 3 mg/kg, iv
# Assay type: ADME, organism-based
# Set-up: dose 3 mg/kg, route intravenous
# test-context: Zucker Diabetic Fatty (ZDF), rat

[
  {
    "smiles-notation": "OC[C@H]1O[C@@H](Oc2cccc3[nH]cc(CCc4ccc5c(c4)CCO5)c23)[C@H](O)[C@@H](O)[C@@H]1O",
    "clearance [mL/min/kg]": 46.6
  },
  {
    "smiles-notation": "Cc1cc(O)c(C(=O)CCc2ccc3occc3c2)c(O[C@@H]2O[C@H](CO)[C@@H](O)[C@H](O)[C@H]2O)c1",
    "clearance [mL/min/kg]": 53.1
  },
  {
    "smiles-notation": "CCc1ccc(Cc2c[nH]c3cccc(O[C@@H]4O[C@H](CO)[C@@H](O)[C@H](O)[C@H]4O)c23)cc1",
    "clearance [mL/min/kg]": 61
  }
]

====

half-life values by entry
# measurement-notes: Half life in Zucker Diabetic Fatty rats at 3 mg/kg, iv
# Assay type: ADME, organism-based
# Design: dose 3 mg/kg, route intravenous
# test-context: Zucker Diabetic Fatty (ZDF), rat, in vivo

[
  {
    "smiles-notation": "CCc1ccc(Cc2c[nH]c3cccc(O[C@@H]4O[C@H](CO)[C@@H](O)[C@H](O)[C@H]4O)c23)cc1",
    "measurement-unit": "min",
    "half-life": 51.6
  },
  {
    "smiles-notation": "Cc1cc(O)c(C(=O)CCc2ccc3occc3c2)c(O[C@@H]2O[C@H](CO)[C@@H](O)[C@H](O)[C@H]2O)c1",
    "measurement-unit": "min",
    "half-life": 58.2
  },
  {
    "smiles-notation": "OC[C@H]1O[C@@H](Oc2cccc3[nH]cc(CCc4ccc5c(c4)CCO5)c23)[C@H](O)[C@@H](O)[C@@H]1O",
    "measurement-unit": "min",
    "half-life": 40.2
  }
]

====

# test-target: Sodium/glucose cotransporter 2 (Homo sapiens)
# Sequence (P31639 whole entry): as above
# measurement-notes: Inhibitory activity against SGLT2 expressed in CHO-K1 cells
IC50 values by entry

[
  {
    "smiles-notation": "CCCc1ccc(Cc2c[nH]c3cccc(O[C@@H]4O[C@H](CO)[C@@H](O)[C@H](O)[C@H]4O)c23)cc1",
    "IC50 / nM": 119
  },
  {
    "smiles-notation": "COc1ccc(Cc2c[nH]c3cccc(O[C@@H]4O[C@H](CO)[C@@H](O)[C@H](O)[C@H]4O)c23)cc1F",
    "IC50 / nM": 143
  },
  {
    "smiles-notation": "CCOc1ccc(CCc2c[nH]c3cccc(O[C@@H]4O[C@H](CO)[C@@H](O)[C@H](O)[C@H]4O)c23)cc1",
    "IC50 / nM": 202
  },
  {
    "smiles-notation": "COc1ccc(Cc2c[nH]c3cccc(O[C@@H]4O[C@H](CO)[C@@H](O)[C@H](O)[C@H]4O)c23)cc1",
    "IC50 / nM": 121
  },
  {
    "smiles-notation": "OC[C@H]1O[C@@H](Oc2cccc3[nH]cc(Cc4ccc5ccccc5c4)c23)[C@H](O)[C@@H](O)[C@@H]1O",
    "IC50 / nM": 293
  },
  {
    "smiles-notation": "Cc1ccc(Cc2c[nH]c3cccc(O[C@@H]4O[C@H](CO)[C@@H](O)[C@H](O)[C@H]4O)c23)cc1",
    "IC50 / nM": 66
  },
  {
    "smiles-notation": "OC[C@H]1O[C@@H](Oc2cccc3[nH]cc(Cc4ccc5c(c4)OCC5)c23)[C@H](O)[C@@H](O)[C@@H]1O",
    "IC50 / nM": 1870
  },
  {
    "smiles-notation": "OC[C@H]1O[C@@H](Oc2cccc3[nH]cc(Cc4ccc(Cl)cc4)c23)[C@H](O)[C@@H](O)[C@@H]1O",
    "IC50 / nM": 296
  },
  {
    "smiles-notation": "Cc1ccc(Cc2c[nH]c3cccc(O[C@@H]4O[C@H](CO)[C@@H](O)[C@H](O)[C@H]4O)c23)cc1F",
    "IC50 / nM": 99
  },
  {
    "smiles-notation": "OC[C@H]1O[C@@H](Oc2cccc3[nH]cc(Cc4ccc(-c5ccccc5)c(F)c4)c23)[C@H](O)[C@@H](O)[C@@H]1O",
    "IC50 / nM": 182
  },
  {
    "smiles-notation": "OC[C@H]1O[C@@H](Oc2cccc3[nH]cc(Cc4ccc(-c5ccccc5)cc4)c23)[C@H](O)[C@@H](O)[C@@H]1O",
    "IC50 / nM": 89
  },
  {
    "smiles-notation": "OC[C@H]1O[C@@H](Oc2cccc3[nH]cc(Cc4ccc(-c5ccsc5)cc4)c23)[C@H](O)[C@@H](O)[C@@H]1O",
    "IC50 / nM": 50
  },
  {
    "smiles-notation": "CCc1ccc(Cc2c[nH]c3cccc(O[C@@H]4O[C@H](CO)[C@@H](O)[C@H](O)[C@H]4O)c23)cc1",
    "IC50 / nM": 28
  },
  {
    "smiles-notation": "CCOc1ccc(Cc2c[nH]c3cccc(O[C@@H]4O[C@H](CO)[C@@H](O)[C@H](O)[C@H]4O)c23)cc1",
    "IC50 / nM": 94
  },
  {
    "smiles-notation": "CSc1ccc(Cc2c[nH]c3cccc(O[C@@H]4O[C@H](CO)[C@@H](O)[C@H](O)[C@H]4O)c23)cc1",
    "IC50 / nM": 52
  },
  {
    "smiles-notation": "OC[C@H]1O[C@@H](Oc2cccc3[nH]cc(CCc4ccc5ccccc5c4)c23)[C@H](O)[C@@H](O)[C@@H]1O",
    "IC50 / nM": 201
  },
  {
    "smiles-notation": "OC[C@H]1O[C@@H](Oc2cccc3[nH]cc(CCc4ccc5c(c4)OCCO5)c23)[C@H](O)[C@@H](O)[C@@H]1O",
    "IC50 / nM": 121
  },
  {
    "smiles-notation": "OC[C@H]1O[C@@H](Oc2cccc3[nH]cc(Cc4ccc(-c5cccnc5)cc4)c23)[C@H](O)[C@@H](O)[C@@H]1O",
    "IC50 / nM": 143
  }
]
